Cited source: ChEMBL document CHEMBL3272309

Experiment: Therapeutic ratio, ratio of highest active dose to lowest active for antitumor activity against in ip dosed mouse allografted with mouse P388 cells
Assay type: ADME, organism-based
Conditions: in vivo, read-out: TI
readout: selectivity ratio

{"mol_smiles": "CCOC(=O)NC1=C(N2CC2)C(=O)C(NC(=O)OCC)=C(N2CC2)C1=O", "assay_value": 3}

---

Assay: Therapeutic ratio in ip dosed mouse allografted with mouse ependymoblastoma cells
Type: ADME, organism-based
Settings: in vivo, read-out: TI

{"mol_smiles": "CCOC(=O)NC1=C(N2CC2)C(=O)C(NC(=O)OCC)=C(N2CC2)C1=O", "selectivity ratio": 4}

---

Assay: Aqueous solubility of the compound
Assay type: physicochemical

{"compound": "CCOC(=O)NC1=C(N2CC2)C(=O)C(NC(=O)OCC)=C(N2CC2)C1=O [DIAZIQUONE]", "solubility [µg/mL]": 500}

---

Experiment: Therapeutic ratio, ratio of highest active dose to lowest active for antitumor activity against in ip dosed mouse allografted with mouse LLC cells
Format: organism-based, Lewis lung carcinoma
Conditions: in vivo, read-out: TI
readout: selectivity ratio

{"molecule": "CCOC(=O)NC1=C(N2CC2)C(=O)C(NC(=O)OCC)=C(N2CC2)C1=O [DIAZIQUONE]", "assay_value": 3}

---

Test: Therapeutic ratio, ratio of highest active dose to lowest active for antitumor activity against in ip dosed mouse allografted with mouse B16 cells
Type: ADME, organism-based
Settings: in vivo, read-out: TI
readout: selectivity ratio

{"compound": "CCOC(=O)NC1=C(N2CC2)C(=O)C(NC(=O)OCC)=C(N2CC2)C1=O [DIAZIQUONE]", "assay_value": 3}
